biological target: UniProt:Q00526
Sequence (Q00526 whole entry): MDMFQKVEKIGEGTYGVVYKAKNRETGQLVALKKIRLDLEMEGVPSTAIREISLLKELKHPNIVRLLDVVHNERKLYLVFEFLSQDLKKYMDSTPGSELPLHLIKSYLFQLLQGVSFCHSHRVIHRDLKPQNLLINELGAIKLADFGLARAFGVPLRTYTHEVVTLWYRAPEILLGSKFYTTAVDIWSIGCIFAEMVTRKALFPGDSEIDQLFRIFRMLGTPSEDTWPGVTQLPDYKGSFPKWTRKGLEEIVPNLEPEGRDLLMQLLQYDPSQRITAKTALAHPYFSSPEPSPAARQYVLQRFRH

MOL SMILES	UNIT DESCRIPTOR	IC50
CC(=O)N[C@H]1CC[C@H](c2ncc(Cl)c(Nc3ccccc3S(=O)(=O)C(C)C)n2)CC1	nM	370

###

molecular target: UniProt:P50750
Sequence (P50750 whole entry): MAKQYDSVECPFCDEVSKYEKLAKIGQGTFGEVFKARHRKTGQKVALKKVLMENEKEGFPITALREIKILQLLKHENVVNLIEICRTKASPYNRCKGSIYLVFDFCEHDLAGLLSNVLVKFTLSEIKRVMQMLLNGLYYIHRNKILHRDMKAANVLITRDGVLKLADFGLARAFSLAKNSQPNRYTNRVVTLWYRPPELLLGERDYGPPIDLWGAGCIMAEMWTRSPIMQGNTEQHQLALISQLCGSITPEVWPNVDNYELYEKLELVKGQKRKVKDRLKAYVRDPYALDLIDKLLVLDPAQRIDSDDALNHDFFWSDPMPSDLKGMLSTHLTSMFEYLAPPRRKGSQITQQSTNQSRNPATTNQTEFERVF
pIC50: −log10 of the molar value.
ASSAY ENDPOINT: pIC50

COMPOUND	ASSAY ENDPOINT	NUMERIC VALUE
Cn1ncc(-c2nc(N[C@H]3CC[C@H](N)CC3)ncc2Cl)c1CC1CC1 [BTX-A51]	pIC50	7.73

###

target: Cyclin-dependent kinase 7 (Homo sapiens)
Sequence (P50613 whole entry): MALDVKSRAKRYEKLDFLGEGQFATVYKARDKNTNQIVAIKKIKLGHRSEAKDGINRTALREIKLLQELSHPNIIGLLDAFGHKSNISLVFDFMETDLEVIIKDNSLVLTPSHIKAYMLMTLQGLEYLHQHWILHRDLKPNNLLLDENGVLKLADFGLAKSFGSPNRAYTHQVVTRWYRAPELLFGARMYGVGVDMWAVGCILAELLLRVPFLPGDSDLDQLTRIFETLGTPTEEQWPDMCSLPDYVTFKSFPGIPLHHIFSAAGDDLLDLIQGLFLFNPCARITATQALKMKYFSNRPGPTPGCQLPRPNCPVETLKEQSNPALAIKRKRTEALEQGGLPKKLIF
pIC50: −log10 of the molar value.
ASSAY ENDPOINT: pIC50

COMPOUND	NUMERIC VALUE
Cn1ncc(-c2nc(N[C@H]3CC[C@H](N)CC3)ncc2Cl)c1CC1CC1 [BTX-A51]	6.56

###

Molecular target: Ephrin type-A receptor 1 (Homo sapiens, UniProt P21709)
Sequence (P21709 whole entry): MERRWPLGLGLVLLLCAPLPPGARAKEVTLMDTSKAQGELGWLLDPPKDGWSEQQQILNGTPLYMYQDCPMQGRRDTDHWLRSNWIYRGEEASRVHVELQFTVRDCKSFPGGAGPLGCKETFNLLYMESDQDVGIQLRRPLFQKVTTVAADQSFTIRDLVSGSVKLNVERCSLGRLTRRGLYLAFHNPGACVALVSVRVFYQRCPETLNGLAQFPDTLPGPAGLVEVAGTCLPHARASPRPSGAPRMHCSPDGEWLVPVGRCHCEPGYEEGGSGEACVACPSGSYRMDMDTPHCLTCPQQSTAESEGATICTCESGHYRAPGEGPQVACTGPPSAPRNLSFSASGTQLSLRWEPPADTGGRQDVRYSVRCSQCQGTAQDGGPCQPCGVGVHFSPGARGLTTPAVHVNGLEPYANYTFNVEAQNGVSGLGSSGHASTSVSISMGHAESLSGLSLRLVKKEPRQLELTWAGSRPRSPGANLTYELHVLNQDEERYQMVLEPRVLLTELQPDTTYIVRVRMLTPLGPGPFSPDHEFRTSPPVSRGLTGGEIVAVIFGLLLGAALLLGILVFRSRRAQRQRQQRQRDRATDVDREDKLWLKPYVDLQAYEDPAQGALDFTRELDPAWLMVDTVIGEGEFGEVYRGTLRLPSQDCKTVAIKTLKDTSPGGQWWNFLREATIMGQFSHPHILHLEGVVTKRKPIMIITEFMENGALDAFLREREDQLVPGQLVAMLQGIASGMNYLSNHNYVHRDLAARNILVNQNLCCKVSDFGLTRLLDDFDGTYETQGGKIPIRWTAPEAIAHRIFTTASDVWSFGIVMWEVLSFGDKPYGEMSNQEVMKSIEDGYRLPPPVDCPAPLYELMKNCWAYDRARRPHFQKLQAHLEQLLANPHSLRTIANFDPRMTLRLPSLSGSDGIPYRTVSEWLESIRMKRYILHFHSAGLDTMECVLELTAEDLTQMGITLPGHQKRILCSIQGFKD

MOL SMILES	ASSAY SYSTEM	UNIT DESCRIPTOR	IC50
CC(=O)N[C@H]1CC[C@H](c2ncc(Cl)c(Nc3ccccc3S(=O)(=O)C(C)C)n2)CC1	Ephrin type-A receptor 1 (Homo sapiens, UniProt P21709)	nM	2480
